FYI, the data here is from patent US8999964B2.

Target: UniProtKB Q8TDU6
Sequence (Q8TDU6 1-330): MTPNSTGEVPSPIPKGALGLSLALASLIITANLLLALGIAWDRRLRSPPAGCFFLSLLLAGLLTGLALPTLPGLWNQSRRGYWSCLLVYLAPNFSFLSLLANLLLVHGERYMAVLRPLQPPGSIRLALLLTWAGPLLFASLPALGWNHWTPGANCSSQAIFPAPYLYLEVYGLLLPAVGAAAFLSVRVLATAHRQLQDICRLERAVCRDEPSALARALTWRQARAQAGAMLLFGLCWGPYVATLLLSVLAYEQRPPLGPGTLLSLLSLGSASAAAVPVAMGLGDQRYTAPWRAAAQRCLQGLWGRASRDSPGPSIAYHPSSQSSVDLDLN
Experiment: FRET assay (intracellular cAMP) in NCI-H716 cells
Format: cell-based
Set-up: Human intestinal cell lines (NCI-H716) were plated in 96-well plates; endogenous in cells; host or cells: NCI-H716
Settings: TGR5 Activation EC50, Table 6; cAMP level on NCI-H716
pEC50: −log10 of the molar value. Where a name gives a salt, the structure may show the parent alone.
Recorded Metric: pEC50

Compound	Experimental System	Recorded Metric	Experimental Value
CC[C@H]1[C@@H](O)[C@@H]2[C@H](CC[C@]3(C)[C@@H]([C@H](C)CCC(=O)O)[C@@H](O)C[C@@H]23)[C@@]2(C)CC[C@@H](O)C[C@@H]12 [Compound 10, sodium salt]	UniProtKB Q8TDU6	pEC50	6.22
